Observed Permeation through Caco-2 monolayer (apical to basal side), system Caco-2 cells.
Peptide text beside a SMILES is read from it.
test.readout: Permeation through Caco-2 monolayer (apical to basal side)

molecule="CC[C@H](C)[C@H](N)C(=O)N1CCC[C@H]1C(=O)N1CCC[C@H]1C(=O)N[C@@H](CC(C)C)C(=O)O [Ile-Pro-Pro-Leu] (H-IPPL-OH; N-terminus and C-terminus assumed)" endpoint_result=permeable
molecule="CC(C)[C@H](N)C(=O)N1CCC[C@H]1C(=O)N1CCC[C@H]1C(=O)O [Val-Pro-Pro]" endpoint_result=permeable
molecule="NC(=O)CC[C@H](NC(=O)[C@@H]1CCCN1C(=O)[C@@H]1CCCN1C(=O)[C@@H](N)Cc1ccccc1)C(=O)O [Phe-Pro-Pro-Gln] (H-FPPQ-OH; N-terminus and C-terminus assumed)" endpoint_result=permeable
